B1: SPSB1 (parent)
chain: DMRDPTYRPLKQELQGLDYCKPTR

Variants of: B1
Assay: protein stability index of a GFP-peptide fusion (GPS, HEK-293T) (PSI 1-6); higher = more stable;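 note: lentivirally expressed fusions sorted by FACS into six bins by GFP to DsRed ratio, PSI derived from sequencing read proportions per bin multiplied by bin number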
Conditions: c terminus: a fixed tail appended
Binary call on protein stability index: T from 3 upward, F beneath that.

> print(dat)
    mutation  class
 1      L17V      T
 2      R24A      F
 3      K11L      T
 4      Y19C      T
 5      L14N      T
 6      K11A      T
 7      Q15W      F
 8       M2N      T
 9      G16W      T
10      Q15S      T

Tell me whether protein stability index is at least 3 here: R24N T

Given P22V , state whether its protein stability index is at least 3. F

Dear colleague, could you confirm whether P9M has protein stability index at or above 3? F

Origin of values: the supplement of paper PMC10567573
